- Test system: livers from treated male Sprague-Dawley rats
- condition.notes: male, Sprague-Dawley, rat, in vivo
// returns Condition not met unless Max (maximum scalar product observed over the multiple time points) is strictly below 0.3, in which case Condition met

Cc1cccc(C)c1NC(=O)C(C)N (centres unmarked) [TOCAINIDE]	Condition met
COC(=O)Nc1nc2ccc([S+]([O-])c3ccccc3)cc2[nH]1 (centres unmarked)	Condition not met
CC(C)c1c(C(=O)Nc2ccccc2)c(-c2ccccc2)c(-c2ccc(F)cc2)n1CC[C@@H](O)C[C@@H](O)CC(=O)O	Condition not met

Decide: Max (maximum scalar product observed over the multiple time points) of CN(C)CCCC1(c2ccc(F)cc2)OCc2cc(C#N)ccc21 (centres unmarked) strictly below 0.3?
Condition met

Decide: Max (maximum scalar product observed over the multiple time points) of CC(C)(Oc1ccc(Cl)cc1)C(=O)O strictly below 0.3?
Condition not met

* * *

Entries and their measured Max (maximum scalar product observed over the multiple time points) follow.
- Test system: livers from treated male Sprague-Dawley rats
- condition.notes: male, Sprague-Dawley, rat, in vivo

Below, each entry is followed by its recorded Max (maximum scalar product observed over the multiple time points) result.
CC(C)(Oc1ccc(CCNC(=O)c2ccc(Cl)cc2)cc1)C(=O)O [BEZAFIBRATE]	2.72
CN(C)CCCN1c2ccccc2CCc2ccc(Cl)cc21 [CLOMIPRAMINE]	−1.46

Fill in: Max (maximum scalar product observed over the multiple time points) of CCN(CC)CCOc1ccc(C(=C(Cl)c2ccccc2)c2ccccc2)cc1 [CLOMIPHENE] is ___
−1.71

* * *

- Test system: livers from treated male Sprague-Dawley rats
- condition.notes: male, Sprague-Dawley, rat, in vivo
Please use met whenever Max (maximum scalar product observed over the multiple time points) is not below -0.4, and not met whenever it is.

Here are 5 molecules together with their reported answers.
CCC1=C[C@@H]2CN(C1)Cc1c([nH]c3ccccc13)[C@@](C(=O)OC)(c1cc3c(cc1OC)N(C)[C@H]1[C@@](O)(C(=O)OC)[C@H](OC(C)=O)[C@]4(CC)C=CCN5CC[C@]31[C@@H]54)C2	not met
CC[C@H]1OC(=O)[C@H](C)[C@@H](O[C@H]2C[C@@](C)(OC)[C@@H](O)[C@H](C)O2)[C@H](C)[C@@H](O[C@@H]2O[C@H](C)C[C@H](N(C)C)[C@H]2O)[C@](C)(O)C[C@@H](C)C(=O)[C@H](C)[C@@H](O)[C@]1(C)O	not met
CC(C)(C)NC(=O)[C@H]1CC[C@H]2[C@@H]3CC[C@H]4NC(=O)C=C[C@]4(C)[C@H]3CC[C@]12C [FINASTERIDE]	met
CC(O)CO (stereo not drawn) [propylene glycol, reference compound]	not met
CCOC(=O)n1ccn(C)c1=S	met

Determine whether this molecule has Max (maximum scalar product observed over the multiple time points) no lower than -0.4: CC(=O)S[C@@H]1CC2=CC(=O)CC[C@]2(C)[C@H]2CC[C@@]3(C)[C@@H](CC[C@@]34CCC(=O)O4)[C@H]12
met

Determine whether this molecule has Max (maximum scalar product observed over the multiple time points) no lower than -0.4: Cc1ccnc2c1NC(=O)c1cccnc1N2C1CC1
met

Determine whether this molecule has Max (maximum scalar product observed over the multiple time points) no lower than -0.4: OC(Cn1cncn1)(Cn1cncn1)c1ccc(F)cc1F
met

Determine whether this molecule has Max (maximum scalar product observed over the multiple time points) no lower than -0.4: CC/C(=C(/CC)c1ccc(O)cc1)c1ccc(O)cc1
met

Determine whether this molecule has Max (maximum scalar product observed over the multiple time points) no lower than -0.4: Nc1ccn([C@@H]2O[C@H](CO)[C@@H](O)[C@@H]2O)c(=O)n1
not met

Determine whether this molecule has Max (maximum scalar product observed over the multiple time points) no lower than -0.4: NC(=O)N1c2ccccc2C=Cc2ccccc21 [CARBAMAZEPINE]
met

Determine whether this molecule has Max (maximum scalar product observed over the multiple time points) no lower than -0.4: CC(=O)O[C@]1(C(C)=O)CC[C@H]2[C@@H]3C=C(Cl)C4=CC(=O)[C@@H]5C[C@@H]5[C@]4(C)[C@H]3CC[C@@]21C [CYPROTERONE ACETATE]
met

Determine whether this molecule has Max (maximum scalar product observed over the multiple time points) no lower than -0.4: OCCOCCN1CCN(C2=Nc3ccccc3Sc3ccccc32)CC1
not met

Determine whether this molecule has Max (maximum scalar product observed over the multiple time points) no lower than -0.4: CC[C@H](C)C(=O)O[C@H]1C[C@@H](C)C=C2C=C[C@H](C)[C@H](CC[C@@H]3C[C@@H](O)CC(=O)O3)[C@H]21
met

Determine whether this molecule has Max (maximum scalar product observed over the multiple time points) no lower than -0.4: Clc1ccc2c(c1)C(N1CCNCC1)=Nc1ccccc1O2
not met
